As shown below, each of these compounds has a reported pKi value.
TARGET DESC: Adenosine A2A receptor (Tag-lite Adenosine A2A labeled cells) (Homo sapiens (Human))
Sequence (P29274 whole entry): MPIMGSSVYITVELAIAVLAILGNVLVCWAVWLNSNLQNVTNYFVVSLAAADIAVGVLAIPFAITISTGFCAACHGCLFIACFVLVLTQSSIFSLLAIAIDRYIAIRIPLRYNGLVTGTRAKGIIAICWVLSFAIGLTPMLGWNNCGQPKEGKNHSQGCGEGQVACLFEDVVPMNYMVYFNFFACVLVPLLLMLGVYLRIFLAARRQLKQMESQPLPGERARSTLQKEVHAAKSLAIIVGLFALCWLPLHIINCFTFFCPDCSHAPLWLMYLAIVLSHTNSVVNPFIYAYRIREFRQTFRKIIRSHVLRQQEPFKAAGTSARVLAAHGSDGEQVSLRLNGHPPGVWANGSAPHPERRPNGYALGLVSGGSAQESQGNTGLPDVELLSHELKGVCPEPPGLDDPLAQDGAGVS
PROTOCOL NOTES: A2A Tag-lite HTRF assay (fluorescent ligand displacement)
MEASUREMENT PARAMETERS: Red antagonist fluorescent ligand 12.5 nM, one-site competitive binding model, read-out: A2A_Ki
Source text: Example C. A2A Tag-Lite® HTRF Assay The final concentration of DMSO was 1%.
pKi: −log10 of the molar value.

Field: example entries. Status: answers known.
| GIVEN SMILES | RECORDED MEASUREMENT |
| --- | --- |
| CCCCn1c2cc(-c3cnn(C4CN(c5nccc(C)n5)C4)c3)[nH]c2c(=O)n2c(C)nnc12 | > 8.00 |
| CCCCCn1c2cc(-c3cnn(C4CN(c5nccc(NCCO)n5)C4)c3)[nH]c2c(=O)n2c(C)nnc12 | > 8.00 |
| CCCCCn1c2cc(-c3cnn(Cc4ccc5c(c4)CCN(C(=O)CN(C)C)C5)c3)[nH]c2c(=O)n2c(C)nnc12 | > 8.00 |
| CCCCCn1c2cc(-c3cnn(Cc4cnc5cccnc5c4)c3)[nH]c2c(=O)n2c(C)nnc12 | > 8.00 |
| CCCCCn1c2cc(-c3cnn(Cc4ccccc4)c3)[nH]c2c(=O)n2c(C)nnc12 | > 8.00 |
| CCCCCn1c2cc(-c3cnn(C4CN(c5nccc(NC)n5)C4)c3)[nH]c2c(=O)n2c(C)nnc12 | > 8.00 |

GET /values?readout=pKi&system=Adenosine A2A receptor (Tag-lite Adenosine A2A labeled cells) (Homo sapiens (Human))&item= CCCCCn1c2cc(-c3cnn(Cc4cncc(C)c4)c3)[nH]c2c(=O)n2c(C)nnc12
> 8.00

----------
# maps each entry to its EC50
TARGET DESC: human adenosine A2B receptor (Homo sapiens (Human), UniProt P29275)
Sequence (P29275 whole entry): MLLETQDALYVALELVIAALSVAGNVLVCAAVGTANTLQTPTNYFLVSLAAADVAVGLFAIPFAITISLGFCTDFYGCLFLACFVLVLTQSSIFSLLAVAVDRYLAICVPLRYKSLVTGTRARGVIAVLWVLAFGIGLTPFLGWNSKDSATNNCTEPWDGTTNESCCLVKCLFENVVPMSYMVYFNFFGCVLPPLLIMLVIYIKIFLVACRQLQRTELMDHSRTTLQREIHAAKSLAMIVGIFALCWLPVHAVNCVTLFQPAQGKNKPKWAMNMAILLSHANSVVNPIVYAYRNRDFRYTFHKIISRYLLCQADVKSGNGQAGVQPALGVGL
PROTOCOL NOTES: Adenosine A2B Receptor Cyclic AMP GS Assay
Assay type: cell-based
MEASUREMENT PARAMETERS: HEK-293 cells expressing human A2B; agonist NECA 12 nM; cAMP accumulation by FRET; read-out: A2B_cAMP_EC50

Known results for molecules:
| MOLECULE | TARGET DESC | EC50 |
| --- | --- | --- |
| CCCCCn1c2cc(-c3cnn(Cc4cncc(F)c4)c3)[nH]c2c(=O)n2c(C)nnc12 [Example 9] | human adenosine A2B receptor (Homo sapiens (Human), UniProt P29275) | 10 to 100 nM |
| CCCCCn1c2cc(-c3cnn(Cc4cncc(C)c4)c3)[nH]c2c(=O)n2c(C)nnc12 [Example 3] | human adenosine A2B receptor (Homo sapiens (Human), UniProt P29275) | < 10 nM |
| CCCCn1c2cc(-c3cnn(C4CN(c5nccc(N)n5)C4)c3)[nH]c2c(=O)n2c(C)nnc12 [Example 28] | human adenosine A2B receptor (Homo sapiens (Human), UniProt P29275) | 10 to 100 nM |

Next up:
# EC50 lookup, item CCCCCn1c2cc(-c3cnn(Cc4cnc5ccsc5c4)c3)[nH]c2c(=O)n2c(C)nnc12 [Example 4]
< 10 nM

----------
TARGET DESC: human adenosine A2B receptor (Homo sapiens (Human), UniProt P29275)
PROTOCOL NOTES: Adenosine A2B Receptor Cyclic AMP GS Assay
MEASUREMENT PARAMETERS: HEK-293 cells expressing human A2B; agonist NECA 12 nM; cAMP accumulation by FRET; read-out: A2B_cAMP_EC50
Description: Example B. Adenosine A2B Receptor Cyclic AMP GS Assay Stably transfected HEK-293 cells expressing the human adenosine A2B receptor (Perkin Elmer) were maintained in MEM culture medium with 10% FBS and 100 μg/ml Geneticin (Life Technologies). 18 to 24 hours prior to assay, geneticin was removed from culture. The cisbio cAMP-GS Dynamic kit utilizing the FRET (Fluorescence Resonance Energy Transfer) technology was used to measure cAMP accumulation in the cells. […]
READOUT NAME: EC50

These recorded examples may help you get a feel for the data.
| COMPOUND | RECORDED MEASUREMENT |
| --- | --- |
| CCCCCn1c2cc(-c3cnn(C4CN(c5nccc(NC)n5)C4)c3)[nH]c2c(=O)n2c(C)nnc12 [Example 23] | 10 to 100 nM |
| CCCCCn1c2cc(-c3cnn(Cc4cnc5cccnc5c4)c3)[nH]c2c(=O)n2c(C)nnc12 [Example 6] | 10 to 100 nM |

Report EC50 for CCCCCn1c2cc(-c3cnn(Cc4cnc5cccnc5c4)c3)[nH]c2c(=O)n2c(C(F)(F)F)nnc12 [Example 12] please.
< 10 nM

I would be grateful if you could share the reported EC50 for CCCCCn1c2cc(-c3cnn(C4CN(c5nccc(NCCO)n5)C4)c3)[nH]c2c(=O)n2c(C)nnc12 [Example 22] .
10 to 100 nM

----------
TARGET DESC: Adenosine A2A receptor (Tag-lite Adenosine A2A labeled cells) (Homo sapiens (Human))
PROTOCOL NOTES: A2A Tag-lite HTRF assay (fluorescent ligand displacement)
MEASUREMENT PARAMETERS: Red antagonist fluorescent ligand 12.5 nM, one-site competitive binding model, read-out: A2A_Ki
Ki by entry:

Reference set, count: 5
| GIVEN SMILES | RECORDED MEASUREMENT |
| --- | --- |
| CCCCCn1c2cc(-c3cnn(Cc4ccn5ccnc5c4)c3)[nH]c2c(=O)n2c(C)nnc12 | < 10 nM |
| CCCCCn1c2c(C)c[nH]c2c(=O)n2c(C)nnc12 | 100 to 1000 nM |
| CCCCCn1c2cc(-c3cnn(Cc4cncc(F)c4)c3)[nH]c2c(=O)n2c(C)nnc12 | < 10 nM |
| CCCCCn1c2c(C#N)c[nH]c2c(=O)n2c(C)nnc12 | 100 to 1000 nM |
| CCCCCn1c2cc[nH]c2c(=O)n2c(C)nnc12 | 100 to 1000 nM |

# lookup: Ki of CCCCCn1c2cc(-c3ccc(S(=O)(=O)Nc4ccc(C)cc4)cc3)[nH]c2c(=O)n2c(C)nnc12
10 to 100 nM

Entry CCCCCn1c2cc(-c3cnn(Cc4cnc5cnn(C)c5c4)c3)[nH]c2c(=O)n2c(C)nnc12 : reported Ki = ?
< 10 nM

// lookup Ki for CCCCCn1c2cc(-c3cnn(C4CN(c5nccc(C#N)n5)C4)c3)[nH]c2c(=O)n2c(C)nnc12
< 10 nM
